Note to self: these molecules have pIC50 reported for Interstitial collagenase (Homo sapiens) in various publications.
pIC50: −log10 of the molar value.

Answered examples (5):
O=C(O)[C@@H]1[C@@H](Cn2nnc3ccc(C(F)(F)F)cc3c2=O)CC[C@H]1C(=O)c1ccc(OCCC2CCCC2)cc1 (single isomer, unassigned): 4.82
COCCOC(=O)N1CCN(S(=O)(=O)c2ccc(Oc3ccc(C#N)cc3)c(F)c2)[C@@H](C(=O)NO)C1: 6.00 to 7.30
O=C(O)C(=O)c1ccc(CN(C2(C(=O)O)CC2c2ccccc2)S(=O)(=O)c2ccc(-c3ccc(Cl)cc3)cc2)cc1 (centres unmarked): ≤ 5.00
CC(C)(Cc1ccc(C(F)(F)F)cc1)C(=O)NC[C@@]1(C2CC2)NC(=O)NC1=O: 5.34
O=C(NO)[C@H]1CN(S(=O)(=O)c2cc(F)c(O)c(F)c2)CCN1S(=O)(=O)c1cc(F)c(Oc2ccc(Cl)cc2)c(F)c1: 4.70 to 6.00

Query: # return pIC50 for O=C(O)c1cccc(CN([C@]2(C(=O)O)C[C@H]2c2cccc(OCCn3cccn3)c2)S(=O)(=O)c2ccc(-c3ccc(Cl)cc3)cc2)c1 (relative stereo) , test system: Interstitial collagenase (Homo sapiens)
Reply: ≤ 5.00

Query: # return pIC50 for O=C(O)c1cccc(CN(C2(C(=O)O)CC2c2cccc(Oc3cccnc3)c2)S(=O)(=O)c2ccc(-c3ccc(Cl)cc3)cc2)c1 (centres unmarked) , test system: Interstitial collagenase (Homo sapiens)
Reply: ≤ 5.00

Query: # return pIC50 for `O=C(NO)[C@H]1CN(C(=O)OCc2ccccc2)CCN1S(=O)(=O)c1cc(F)c(Oc2ccc(Cl)cc2)c(F)c1` , test system: Interstitial collagenase (Homo sapiens)
Reply: 4.70 to 6.00

Query: # return pIC50 for `CN1CCN(S(=O)(=O)c2cc(F)c(Oc3ccc(F)cc3)c(F)c2)[C@@H](C(=O)NO)C1` , test system: Interstitial collagenase (Homo sapiens)
Reply: < 4.70

Query: # return pIC50 for `C[C@@H]1NCCN(S(=O)(=O)c2ccc(OCc3ccccc3)cc2)[C@H]1C(=O)NO` , test system: Interstitial collagenase (Homo sapiens)
Reply: 5.13

Query: # return pIC50 for `O=C(O)[C@H](Cc1c[nH]c2ccccc12)NS(=O)(=O)c1ccc(C#Cc2ccc3ccccc3c2)cc1` , test system: Interstitial collagenase (Homo sapiens)
Reply: < 5.00

Query: # return pIC50 for `CS(=O)(=O)N1CCN(S(=O)(=O)c2cc(F)c(Oc3ccc(Cl)cc3)c(F)c2)[C@@H](C(=O)NO)C1` , test system: Interstitial collagenase (Homo sapiens)
Reply: 6.00 to 7.30

Query: # return pIC50 for `O=C(O)[C@H](CCc1ccccc1)NS(=O)(=O)c1ccc2c(c1)S(=O)(=O)c1ccccc1O2` , test system: Interstitial collagenase (Homo sapiens)
Reply: < 4.00

Query: # return pIC50 for `O=C(NO)[C@H]1CNCCN1S(=O)(=O)c1cc(F)c(Oc2ccc(F)cc2)c(F)c1` , test system: Interstitial collagenase (Homo sapiens)
Reply: < 4.70

---

Note to self: these compounds have IC50 reported for Interstitial collagenase (Homo sapiens, UniProt P03956) in various publications.

Answered examples (5):
CC(C)[C@H](NS(=O)(=O)c1ccc(C#Cc2ccc3ccccc3c2)s1)C(=O)O: > 10 µM
O=C(O)[C@H](Cc1ccc(O)cc1)NS(=O)(=O)c1ccc2c(c1)Sc1ccccc1O2: 87 µM
CN([C@]1(C(=O)O)C[C@@]1(CN1CCOCC1)c1ccccc1)S(=O)(=O)c1ccc(-c2cc(C(F)(F)F)on2)s1 (relative stereo): ≥ 10 µM
CC(C)(CN([C@]1(C(=O)O)C[C@H]1c1ccccc1)S(=O)(=O)c1ccc(-c2ccc(Cl)cc2)cc1)C(=O)O (relative stereo): ≥ 10 µM
COc1ccc(S(=O)(=O)N(C)c2cccc(/C(=C\C(=O)NO)c3ccccc3)c2)cc1: > 10 µM

Query: # return IC50 for O=C(O)[C@H]1[C@H](Cn2nnc3ccc(C(F)(F)F)cc3c2=O)CC[C@@H]1C(=O)c1ccc(OCc2ccc(F)cc2)cc1 (racemic) , test system: Interstitial collagenase (Homo sapiens, UniProt P03956)
Reply: 2.5 µM

Query: # return IC50 for COc1ccc(S(=O)(=O)N2CC(=O)N(CCc3ccccn3)CC2C(=O)NO)cc1 (centres unmarked) , test system: Interstitial collagenase (Homo sapiens, UniProt P03956)
Reply: > 10 µM
